# targetSystem: human TLR7 (Homo sapiens, UniProt Q9NYK1)
# Sequence (Q9NYK1 27-1049): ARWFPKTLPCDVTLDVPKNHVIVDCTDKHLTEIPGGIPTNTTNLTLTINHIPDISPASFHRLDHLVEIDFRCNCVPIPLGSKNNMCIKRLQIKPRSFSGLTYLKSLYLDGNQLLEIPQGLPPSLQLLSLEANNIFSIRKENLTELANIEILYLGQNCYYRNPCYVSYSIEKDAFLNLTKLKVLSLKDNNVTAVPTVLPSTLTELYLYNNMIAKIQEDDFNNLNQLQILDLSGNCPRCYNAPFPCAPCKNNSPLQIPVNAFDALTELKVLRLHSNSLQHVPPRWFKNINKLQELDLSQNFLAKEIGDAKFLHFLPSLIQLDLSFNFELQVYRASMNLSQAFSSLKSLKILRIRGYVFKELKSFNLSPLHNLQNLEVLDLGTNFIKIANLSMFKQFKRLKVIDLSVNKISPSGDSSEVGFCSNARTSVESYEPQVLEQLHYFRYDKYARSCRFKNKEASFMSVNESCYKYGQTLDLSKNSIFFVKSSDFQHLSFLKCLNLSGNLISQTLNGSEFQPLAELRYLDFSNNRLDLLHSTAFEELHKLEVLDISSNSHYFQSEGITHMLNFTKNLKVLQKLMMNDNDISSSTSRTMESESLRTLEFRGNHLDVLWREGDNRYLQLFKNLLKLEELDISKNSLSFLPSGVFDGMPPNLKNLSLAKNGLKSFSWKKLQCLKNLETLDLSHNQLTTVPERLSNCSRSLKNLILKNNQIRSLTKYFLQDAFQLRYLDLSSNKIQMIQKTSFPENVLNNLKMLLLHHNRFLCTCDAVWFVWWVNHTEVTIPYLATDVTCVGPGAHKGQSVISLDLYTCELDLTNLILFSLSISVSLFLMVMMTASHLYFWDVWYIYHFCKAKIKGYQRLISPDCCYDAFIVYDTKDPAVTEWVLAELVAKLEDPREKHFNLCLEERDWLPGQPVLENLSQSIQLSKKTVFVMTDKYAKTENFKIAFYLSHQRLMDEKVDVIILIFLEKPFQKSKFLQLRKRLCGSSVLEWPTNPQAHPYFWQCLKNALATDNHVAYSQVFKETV
# protocolNotes: HEK293-Blue-hTLR-7 cells assay (SEAP reporter, R848 stimulation)
# measurementConditions: HEK293-Blue-hTLR7 cells, R848, 20 hrs; read-out: HEK/hTLR7 IC50
pIC50: −log10 of the molar value.
property: pIC50

> print(dat)
                                   molecule  measured
1  C[C@@H]1CN(c2ccc(C#N)n3ncc(F)c23)C[C@H](CN2CCN(c3ccc(N4CCOC5(CNC5)C4)nc3)CC2)O1 [Example 178]      7.42
2  Cc1cc(N2CCN(C[C@H]3CN(c4ccc(C#N)c5ncccc45)C[C@@H](C)O3)CC2)nc(N2CCNC(C(C)(C)O)C2)n1 (some centres unmarked) [Example 81]      7.66
3  C[C@@H]1CN(c2ccc(C#N)c3ncccc23)C[C@H](CN2CCC(c3cccc(N4CCNCC4)c3)C2)O1 (some centres unmarked) [Example 1]      7.08
4  [2H]c1ccc2c(N3C[C@H](CN4CCN(c5ccc(N6CC7(CNCCO7)C6)nc5)CC4)O[C@H](C)C3)ccc(C#N)c2n1 [Example 152]      7.82
5  Cc1nc(N2CCNCC2)nc(N2CCN(C[C@H]3CN(c4ccc(C#N)c5ncccc45)C[C@@H](C)O3)CC2)c1C [Example 46]      7.74
6  C[C@@H]1CN(c2ccc(C#N)c3ncccc23)C[C@H](CN2CCN(c3ccnc(N4CCN(C(=O)CN(C)C)CC4)n3)CC2)O1 [Example 32]      8.22
7  Cc1cc(N2CCN(C[C@H]3CN(c4ccc(C#N)c5ncccc45)C[C@@H](C)O3)CC2)nc(N[C@@H]2CNC[C@H]2F)n1 [Example 76]      7.70
8  Cc1cc(N2CCN(C[C@H]3CN(c4ccc(C#N)c5ncccc45)C[C@@H](C)O3)CC2)nc(N2CC[C@@H](N)C(F)C2)n1 (stereo in doubt) [Example 82]      7.54

---

# targetSystem: human TLR8 (Homo sapiens, UniProt Q9NR97)
# Sequence (Q9NR97 27-1041): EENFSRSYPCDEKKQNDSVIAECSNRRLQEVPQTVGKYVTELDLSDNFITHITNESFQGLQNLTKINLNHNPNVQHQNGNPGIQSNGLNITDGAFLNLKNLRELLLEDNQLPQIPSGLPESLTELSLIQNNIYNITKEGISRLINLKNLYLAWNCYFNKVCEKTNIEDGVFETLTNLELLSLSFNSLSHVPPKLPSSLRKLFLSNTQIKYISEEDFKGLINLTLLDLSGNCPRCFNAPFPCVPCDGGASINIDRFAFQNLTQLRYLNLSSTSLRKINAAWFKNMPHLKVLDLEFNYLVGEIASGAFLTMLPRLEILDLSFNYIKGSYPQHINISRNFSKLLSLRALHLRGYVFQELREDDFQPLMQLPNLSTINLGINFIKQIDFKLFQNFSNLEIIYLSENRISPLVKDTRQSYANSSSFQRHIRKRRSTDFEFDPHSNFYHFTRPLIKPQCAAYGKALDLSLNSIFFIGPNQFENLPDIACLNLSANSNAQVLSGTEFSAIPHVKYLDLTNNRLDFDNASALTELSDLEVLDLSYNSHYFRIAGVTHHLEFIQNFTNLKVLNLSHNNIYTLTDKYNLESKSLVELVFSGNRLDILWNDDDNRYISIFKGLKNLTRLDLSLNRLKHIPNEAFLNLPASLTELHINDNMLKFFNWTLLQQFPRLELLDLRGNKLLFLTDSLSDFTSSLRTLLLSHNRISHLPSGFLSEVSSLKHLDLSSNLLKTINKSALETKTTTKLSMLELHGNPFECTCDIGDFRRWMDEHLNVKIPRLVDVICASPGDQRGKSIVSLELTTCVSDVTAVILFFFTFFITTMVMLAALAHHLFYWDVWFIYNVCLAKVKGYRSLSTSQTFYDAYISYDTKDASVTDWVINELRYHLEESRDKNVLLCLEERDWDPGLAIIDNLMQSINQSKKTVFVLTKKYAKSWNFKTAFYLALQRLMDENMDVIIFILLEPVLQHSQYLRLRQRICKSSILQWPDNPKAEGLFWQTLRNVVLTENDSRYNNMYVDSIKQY
# protocolNotes: HEK293-Blue-hTLR-8 cells assay (SEAP reporter, R848 stimulation)
# measurementConditions: HEK293-Blue-hTLR8 cells, R848, 20 hrs; read-out: HEK/hTLR8 IC50
pIC50: −log10 of the molar value.
Known pIC50 of a selection of compounds
property: pIC50

> print(dat)
                                    compound  property  measured
 1  C[C@@H]1CN(c2ccc(C#N)n3ncc(F)c23)C[C@H](CN2CCN(c3ccc(N4CC[C@@H](N)[C@H](F)C4)nc3)CC2)O1     pIC50      7.92
 2  C[C@@H]1CN(c2ccc(C#N)c3ncccc23)C[C@H](CN2CCN(c3ncc(F)c(N4CCNCC4)n3)CC2)O1     pIC50      8.22
 3  CO[C@@H]1CN(c2nccc(N3CCN(C[C@H]4CN(c5ccc(C#N)c6nccnc56)C[C@@H](C)O4)CC3)n2)C[C@H]1N     pIC50      9.00
 4  C[C@@H]1CN(c2cc(=O)n(C)c3ncccc23)C[C@H](CN2CC(c3ccc(N4CC5(CNCCO5)C4)cc3)C2)O1     pIC50      7.13
 5  C[C@@H]1CN(c2ccc(C#N)c3ncccc23)C[C@H](CN2CCN(c3ccnc(N4CCN(C(=O)CN(C)C)CC4)n3)CC2)O1     pIC50      8.52
 6  C[C@@H]1CN(c2ccc(C#N)n3ncc(F)c23)C[C@H](CN2CC(c3ccc(N4CC(C)(N)C4)nc3)C2)O1     pIC50      7.43
 7  Cc1cc(N2CCN(C[C@H]3CN(c4ccc(C#N)c5ncccc45)C[C@@H](C)O3)CC2)nc(N2CCC(N)C(F)(F)C2)n1 (stereo partly drawn)     pIC50      8.22
 8  Cc1cc(N2C[C@@H](N)[C@@H](F)C2)nc(N2CCN(C[C@H]3CN(c4ccc(C#N)c5nccnc45)C[C@@H](C)O3)CC2)n1     pIC50      9.00
 9  C[C@@H]1CN(c2ccc(C#N)c3ncccc23)C[C@H](CN2CCC(c3cccc(N4CCNCC4)c3)C2)O1 (stereo partly drawn)     pIC50      7.40
10  COC1CN(c2nc(C)cc(N3CCN(C[C@H]4CN(c5ccc(C#N)c6ncccc56)C[C@@H](C)O4)CC3)n2)CC1N (single isomer, unassigned)     pIC50      8.70
11  Cc1cc(N2CCN(C[C@H]3CN(c4ccc(C#N)c5ncccc45)C[C@@H](C)O3)CC2)nc(N2CC3(CNCCO3)C2)n1     pIC50      8.52
12  [2H]c1ccc2c(N3C[C@H](CN4CC(c5ccc(N6CC(C)(N)C6)cc5)C4)O[C@H](C)C3)ccc(C#N)c2n1     pIC50      8.05
